The reported numbers originate from patent US4902794A.

Please respond with reported LD50 for every item in the list.
Assay: LD50 (lethal dose) in mice
Conditions: mouse, in vivo

Please report LD50 for the following compound: O=C(O)CCC(=O)OCc1nnc2n1-c1ccc(Cl)cc1C(c1ccccc1Cl)=NC2 > 25 mg/kg

Please report LD50 for the following compound: OCc1nnc2n1-c1ccc(Cl)cc1C(c1ccccc1)=NC2 > 100 mg/kg

Please report LD50 for the following compound: CCOCc1nnc2n1-c1ccc(Cl)cc1C(c1ccccc1)=NC2 > 100 mg/kg

Please report LD50 for the following compound: OCc1nnc2n1-c1ccc(Cl)cc1C(c1ccccc1Cl)=NC2 > 100 mg/kg
